B1: HDV Ribozyme (parent)
chain: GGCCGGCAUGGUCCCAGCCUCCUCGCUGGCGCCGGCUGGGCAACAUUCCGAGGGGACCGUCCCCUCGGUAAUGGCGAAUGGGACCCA

Variants of: B1
Assay: self-cleavage, relative activity (ratio to wild type); higher = more cleavage; co-transcriptional
Please note: MET applies when self-cleavage is 0.8 or greater, and NOT MET applies otherwise.

[
  {
    "record-sequence": "GGCCGGCAUGGUCCCAGCCUCGUCGCUGGCCCCGGCUGGGCAACAUUCCGAGGGGACCGUCCCCUCGGUAAUGGCGAAUGGGACCCA",
    "category-label": "NOT MET"
  },
  {
    "record-sequence": "GGCCGGCAUAGUCCCAGCCUCCUCGCUGGCGCCGGCUGGGCAACAUUCCGAGGGGACCGUUCCCUCGGUAAUGGCGAAUGGGACCCA",
    "category-label": "MET"
  },
  {
    "record-sequence": "GGCCGGCAUGGUCGCAGCCUCCUCGCUGGCGCCGGCUGGGCAACAUUCCGAGGGGACCGUCCACUCGGUAAUGGCGAAUGGGACCCA",
    "category-label": "NOT MET"
  },
  {
    "record-sequence": "GGCCGGCAUGGUCCCAGCCACCUCGCUGGCGCCAGCUGGGCAACAUUCCGAGGGGACCGUCCCCUCGGUAAUGGCGAAUGGGACCCA",
    "category-label": "NOT MET"
  },
  {
    "record-sequence": "GGCCGGCAUGGACCCAGCCUCCUCGCUGGCGCCGGCUGGGCAACAUUCCGAGGGGAUCGUCCCCUCGGUAAUGGCGAAUGGGACCCA",
    "category-label": "NOT MET"
  }
]

Does the reported self-cleavage for GGCCGGCAUGGUCCCAGCCUCCUCGCUGGCGCCGGCUAGGCAACAUUCCGAGGGGACCGUCCCCUCGGUAAUGGCGAAUGGGAGCCA fall at or above the 0.8 mark?
NOT MET

Entry GGCCGGCAUGGUCCCAGCCUCCUCGCUGGCGCCGGCUGGGCAACAUUCCGAGGGGACCGUCCCCUCUGUAAUGCCGAAUGGGACCCA : is its self-cleavage no less than 0.8?
NOT MET

Determine whether this variant has self-cleavage no lower than 0.8: GGCCGGCAUGGUCCCAGCCUCCUCGCUGGCUCCGGCUGGUCAACAUUCCGAGGGGACCGUCCCCUCGGUAAUGGCGAAUGGGACCCA
NOT MET

Has GUCCGGCAUGGUCCCAGCCUCCUCGCUGGCGCCGGCUGGGCAACAUUCCGAGGGGACAGUCCCCUCGGUAAUGGCGAAUGGGACCCA a recorded self-cleavage greater than or equal to 0.8?
NOT MET

Hi team, for GGCCGCCAUGGUCCCAGCCUCCUCGCUGGCGCCGGCUGGGCAACAUUCCGAGGCGACCGUCCCCUCGGUAAUGGCGAAUGGGACCCA , is the recorded self-cleavage at or above 0.8?
NOT MET
